Origin of the recorded values: the supplement of paper PMC9262897

As shown below, each of these compounds has a reported growth value.
System: E. coli TESEC Mtb Asd
Assay: growth (OD600 after 10 h); higher = more growth (less inhibition)
Settings: arabinose induction (level): Low; compound 0.1 mM; raw OD600 reference: median of DMSO wells 0.417, cell-free background 0.041
Where a name gives a salt, the structure may show the parent alone.
assay readout: growth

| compound | target desc | assay readout | numeric readout |
| --- | --- | --- | --- |
| O=C(OCC(O)CO)c1ccccc1Nc1ccnc2cc(Cl)ccc12 (stereo not drawn) [Glafenine hydrochloride] | E. coli TESEC Mtb Asd | growth | 0.17 |
| N[C@@H](C(=O)N[C@@H]1C(=O)N2C(C(=O)O)=C(Cl)CC[C@H]12)c1ccccc1 [Loracarbef] | E. coli TESEC Mtb Asd | growth | 0.411 |
| CC(C)[C@H](N)C(=O)OCCOCn1cnc2c(=O)nc(N)[nH]c21 [Valacyclovir hydrochloride] | E. coli TESEC Mtb Asd | growth | 0.365 |
| CCN1C(=O)NC(c2ccccc2)C1=O (stereo not drawn) [Ethotoin] | E. coli TESEC Mtb Asd | growth | 0.446 |
| CCCCc1ccc2[nH]c(NC(=O)OC)nc2c1 [Parbendazole] | E. coli TESEC Mtb Asd | growth | 0.435 |
| COc1c(N2CCNC(C)C2)c(F)cc2c(=O)c(C(=O)O)cn(C3CC3)c12 (stereo not drawn) [Gatifloxacin] | E. coli TESEC Mtb Asd | growth | 0.0482 |
| CO/N=C(\C(=O)N[C@@H]1C(=O)N2C(C(=O)OC(C)OC(C)=O)=C(COC(N)=O)CS[C@H]12)c1ccco1 (stereo partly drawn) [Cefuroxime axetil] | E. coli TESEC Mtb Asd | growth | 0.316 |
| O=C(COc1ccc(Cl)cc1)N1CCN(Cc2ccc3c(c2)OCO3)CC1 [Fipexide hydrochloride] | E. coli TESEC Mtb Asd | growth | 0.214 |
